Molecular target: Solute carrier organic anion transporter family member 1B1 (Homo sapiens, UniProt Q9Y6L6)
Sequence (Q9Y6L6 whole entry): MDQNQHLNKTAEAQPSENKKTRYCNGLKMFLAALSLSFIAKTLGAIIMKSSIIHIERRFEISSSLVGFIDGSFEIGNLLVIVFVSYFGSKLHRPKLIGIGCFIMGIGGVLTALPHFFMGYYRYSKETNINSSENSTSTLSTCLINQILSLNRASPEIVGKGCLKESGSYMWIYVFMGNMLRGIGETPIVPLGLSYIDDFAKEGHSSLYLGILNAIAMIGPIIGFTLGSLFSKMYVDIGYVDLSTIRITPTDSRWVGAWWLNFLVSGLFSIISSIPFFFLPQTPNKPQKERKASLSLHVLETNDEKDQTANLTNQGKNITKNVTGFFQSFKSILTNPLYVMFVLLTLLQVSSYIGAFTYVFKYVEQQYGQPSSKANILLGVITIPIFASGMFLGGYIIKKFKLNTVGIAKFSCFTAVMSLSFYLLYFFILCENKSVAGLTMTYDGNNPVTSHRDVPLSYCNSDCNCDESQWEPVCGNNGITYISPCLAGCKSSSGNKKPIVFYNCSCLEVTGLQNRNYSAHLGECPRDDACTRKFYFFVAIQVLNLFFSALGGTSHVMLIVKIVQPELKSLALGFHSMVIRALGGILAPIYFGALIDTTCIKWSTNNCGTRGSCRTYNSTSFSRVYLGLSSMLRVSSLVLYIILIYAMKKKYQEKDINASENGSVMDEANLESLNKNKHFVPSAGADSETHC
Experiment: Inhibition of OATP1B1 (unknown origin) expressed in HEK293 cells assessed as reduction of [3H]E217betaG substrate uptake by liquid scintillation counting
pIC50: −log10 of the molar value.
metric: pIC50

pIC50 for `CC#CCn1c(N2CCC[C@@H](N)C2)nc2c1c(=O)n(Cc1nc(C)c3ccccc3n1)c(=O)n2C` ? < 4.00

----------
System: P-glycoprotein
Assay: Permeability assessed as human P-glycoprotein-mediated transport across apical to basolateral side expressed in pig LLC-PK1 cells at 2 uM by liquid scintillation counting
Format: ADME, cell-based
metric: Papp A→B at 2 µM (×10⁻⁶ cm/s)
Give bare numbers, in ×10⁻⁶ cm/s.

P-glycoprotein / Papp A→B at 2 µM / `CC#CCn1c(N2CCC[C@@H](N)C2)nc2c1c(=O)n(Cc1nc(C)c3ccccc3n1)c(=O)n2C` : value? 4.21
